# Assay target: MAL^TIR (Homo sapiens, UniProt P58753)
# Construct: MAL (residues 79–221); 6xHis; made in house; host or cells: E. coli BL21 (DE3)
# Sequence (P58753 79-221): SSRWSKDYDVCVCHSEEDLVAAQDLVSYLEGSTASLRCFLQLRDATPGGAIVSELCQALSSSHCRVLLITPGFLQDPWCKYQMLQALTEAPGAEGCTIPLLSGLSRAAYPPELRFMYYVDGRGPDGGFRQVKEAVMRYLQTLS
# Method summary: T‐Surf phage library (P8 and P3) selection against MAL^TIR, four rounds, NGS read counts
# Format: binding
# Details: P8 library, 4R selection against MAL, rank before grouping
Property label: P8_MAL Rank (before)

AFFCTQLLNVLRKPTI ... 1590
AFFWEQLRTVLRKPTT ... 1693
AFPDTFLIKLPHPTNV ... 1918

P. DDAVWVYEHLVKFLEG
Q. LFYGRMVSLILRDTNV
Query block: Just tell me: smaller P8_MAL Rank (before) value, P or Q ? Bench note: the answer is the label of the chosen record.
Result block: Q

1. RDFVAYLFQALANKGL
2. SFLGHLYNALVQADIH
Query block: Just tell me: smaller P8_MAL Rank (before) value, 1 or 2 ? Bench note: the answer is the label of the chosen record.
Result block: 2
(2: 1452, 1: 2171)

A. HFFWVKLKSILGETSL
B. AFFLAQLKSVMGNPTM
Query block: Just tell me: smaller P8_MAL Rank (before) value, A or B ? Bench note: the answer is the label of the chosen record.
Result block: B
